In this section we review reported inhibition at 25 µM values for a set of molecules.
- studyTarget: β-Secretase (BACE1) (Homo sapiens, UniProt P56817)
- Construct: purchased Sino Biological
- Sequence (P56817 46-501): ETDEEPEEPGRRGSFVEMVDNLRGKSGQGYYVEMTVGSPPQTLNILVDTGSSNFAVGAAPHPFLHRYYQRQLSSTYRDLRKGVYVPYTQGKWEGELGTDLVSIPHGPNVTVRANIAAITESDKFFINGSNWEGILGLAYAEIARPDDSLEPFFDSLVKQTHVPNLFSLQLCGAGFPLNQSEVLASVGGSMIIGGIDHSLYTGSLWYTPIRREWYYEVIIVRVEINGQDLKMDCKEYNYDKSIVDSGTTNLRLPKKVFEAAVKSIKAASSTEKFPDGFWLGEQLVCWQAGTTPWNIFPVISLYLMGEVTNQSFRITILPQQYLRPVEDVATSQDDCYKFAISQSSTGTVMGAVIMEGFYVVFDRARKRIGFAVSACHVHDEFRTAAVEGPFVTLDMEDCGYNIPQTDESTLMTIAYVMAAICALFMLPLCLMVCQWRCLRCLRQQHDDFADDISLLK
- experimentNotes: β-Secretase inhibition assay (fluorogenic substrate IV)
- Format: biochemical
- conditionParameters: read-out: BACE1 % Inhibition (at 25 µM) (±SEM)
Write the value in % as a bare number.

Completed entries (count: 7):
molecule: COc1cc(/C=C/C(=O)NCc2cn(C[C@@H]3Cc4c([nH]c5ccccc45)CN3)nn2)ccc1O
measure: inhibition at 25 µM
recordedNumber: 21.1
--
molecule: O=C(CCc1ccc(O)cc1)NCc1cn(C[C@@H]2Cc3c([nH]c4ccccc34)CN2)nn1
measure: inhibition at 25 µM
recordedNumber: 12.6
--
molecule: COc1cc(/C=C/C(=O)NCc2cn(C[C@@H](N)Cc3c[nH]c4ccccc34)nn2)ccc1O [Compound 12g]
measure: inhibition at 25 µM
recordedNumber: 16.2
--
molecule: O=C(/C=C/c1ccc(O)c(O)c1)NCc1cn(C[C@@H]2Cc3c([nH]c4ccccc34)CN2)nn1
measure: inhibition at 25 µM
recordedNumber: 21.7
--
molecule: CC(C)(C)c1ccc(-c2cn(C[C@@H](N)Cc3c[nH]c4ccccc34)nn2)cc1 [Compound 12a]
measure: inhibition at 25 µM
recordedNumber: 18.9
--
molecule: N[C@@H](Cc1c[nH]c2ccccc12)Cn1cc(CNC(=O)c2cc(O)cc(O)c2)nn1 [Compound 12f]
measure: inhibition at 25 µM
recordedNumber: 16.6
--
molecule: COc1ccc2cc(-c3cn(C[C@@H]4Cc5c([nH]c6ccccc56)CN4)nn3)ccc2c1
measure: inhibition at 25 µM
recordedNumber: 73.6

Task item: For N[C@@H](Cc1c[nH]c2ccccc12)Cn1cc(CNC(=O)/C=C/c2ccc(O)c(O)c2)nn1 [Compound 12h] , what is its reported inhibition at 25 µM?
Reply: 40
